The values you see were collected from PubChem BioAssay (Tox21).

# assay_remarks: p53 small molecule agonists, cell-based qHTS assay with human liver microsomes: qHTS cell viability counter screen (AID 1963579); also: % is scaled to controls: 0 for no effect and ±100 for the full control effect; nearly all actives have a fitted effect of over 45% in size
# reported_conditions: p53RE-bla HCT-116 viability, ATP luminescence, 16 h, HLM; series mostly up to 66 µM
Results filed as inconclusive are left out. Activity calls are given as the source filed them. Calls follow the shape of the full dose curve.
measure: activity change, negative = cytotoxicity

See these solved cases before continuing.
C[Si]1(C)N[Si](C)(C)N[Si](C)(C)N1 | inactive
CC1=NS(=O)(=O)c2cc(Cl)ccc2N1 | inactive
CCCCCCC(O)CO (stereo unspecified) | inactive
O=C(O)C[C@H](O)C[C@H](O)/C=C/c1c(C2CC2)nc2ccccc2c1-c1ccc(F)cc1 | -1.08% [at 13.5 µM] (inactive)
CCCCC1CCCCC(=O)O1 (stereo unspecified) | inactive

Which measured activity change, negative = cytotoxicity value corresponds to Cc1c(C)c2c(c(C)c1OC(=O)CCC(=O)OCCO)CC[C@@](C)(CCC[C@H](C)CCC[C@H](C)CCCC(C)C)O2 ? inactive
